Just for reference, paper PMC7357032 is where these values come from.

# assay.remarks: Cytotoxicity assay (resazurin)
# Assay type: cell-based
# experimental.conditions: human, compounds and combinations, HeLa cells, read-out: % Cell Viability ± sd Cytotoxicity
# Method: Human cervix adenocarcinoma cells (HeLa cells) were used to check the toxicity of the crude extract and compounds and their combinations as described by Keusch et al. (1972). […] The numbers of cells surviving drug treatment were determined using the resazurin based reagent and reading resorufin fluorescence in a Spectramax M3 microplate reader. Results were expressed as % viability-the resorufin fluorescence in compound-treated wells relative to untreated controls. […]
readout.name: viability at 48 h, 20 µM (stock) (%)

compound	readout.name	experimental.value
CCCCCCCCC1C2C=CC3C(CO)C=CC4CC1C2C43 (centres unmarked) [Compound 11a, beilschmiedol A]	viability at 48 h, 20 µM (stock)	52.6
CCCCCCCCC1C2C=CC3C(COC(=O)c4cc(OC)c(OC)c(OC)c4)C=CC4CC1C2C43 (centres unmarked) [Compound 11d, beilschmiegallate]	viability at 48 h, 20 µM (stock)	100
CCCCCCCC[C@@H]1[C@H]2C=C[C@H]3C(C=O)=CC[C@@H]4C[C@@H]1[C@@H]2[C@H]43 [Compound 11b, beilschmiedal]	viability at 48 h, 20 µM (stock)	79.6
O=C(O)CCCCCCCCCCCCCCc1ccccc1	viability at 48 h, 20 µM (stock)	76.6
O=C(O)C[C@@H]1[C@H]2C=C[C@H]3C(c4ccc5c(c4)OCO5)=CC[C@@H]4C[C@@H]1[C@@H]2[C@H]43	viability at 48 h, 20 µM (stock)	100
CCCC/C=C\CCCCc1ccccc1	viability at 48 h, 20 µM (stock)	50.3
CCCCCCCCC1C2C=CC3C(C(=O)O)C=CC4CC1C2C43 (centres unmarked)	viability at 48 h, 20 µM (stock)	100
CCCCCCCC[C@@H]1[C@H]2C=C[C@H]3C(/C=N/NC(N)=S)=CC[C@@H]4C[C@@H]1[C@@H]2[C@H]43 [Compound 11c, beilschmiecarbazone]	viability at 48 h, 20 µM (stock)	100
